# TESTED_TARGET: StSSB (Salmonella enterica serovar Typhimurium …, UniProt P0A2F6 1-176)
# ASSAY: EMSA; monomer conc.; 1 complex; 20 mM Tris-HCl pH 8.0, 100 mM NaCl, 25°C 30 min, 1.7 nM DNA, protein 0-5000 nM; native 8% PAGE in TBE at 4°C
# MEASUREMENT_CONTEXT: protein: recombinant; tags: none (untagged); chain copies: 4; label: 5' 32P
Hi there, I'd appreciate the recorded apparent K (half saturation) for every entry that follows.
Answers are plain numbers, in nM.

Here's what some known entries look like.
1) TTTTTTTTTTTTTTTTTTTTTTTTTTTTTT (ssDNA) [dT30]	420
2) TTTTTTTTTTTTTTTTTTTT (ssDNA) [dT20]	450
3) TTTTTTTTTTTTTTT (ssDNA) [dT15]	650

// switching to the query binder
For the binder shown here, TTTTTTTTTTTTTTTTTTTTTTTTTTTTTTTTTTTTTTTT (ssDNA) [dT40] , give the reported apparent K (half saturation). 420
